Reported growth by item:
# Test system: RXF 393 renal
# EXPERIMENT_SUMMARY: NCI-60 one-dose screen, 48 h (100 = growth as untreated, 0 = no growth, -100 = all killed)
# TEST_CONDITIONS: 10 µM unless noted
This is part of a sample that, as a whole, favours compounds with a hit. Of some 83,000 tested, about 20% had one in any assay.
# output: bare number, implied unit %

Here are 3 molecules together with their reported answers.
O=C(Cn1c[n+](CC(=O)c2ccc([N+](=O)[O-])cc2)c2ccccc21)Nc1cccc2cccnc12 | 97.6
CC(Oc1ccc(C(=O)O)cc1C(F)(F)F)c1ccc(Oc2ccccc2)cn1 (stereo not given) | 95.8
CC(=O)O[C@@H]1C2CCC3C(CC[C@@]4(C)C3CC[C@@H]4C(C)N(C)C)[C@@]2(C)CC[C@@H]1NC(=O)C=C(C)C (stereo not given in full) | -51.5

Specify growth for `COc1ccc(-c2nc([C@@H](C)Sc3nc(N)cc(N)n3)c(C)s2)cc1OCCN1CCOCC1` and stop. 96

In one line, give reported growth of the entry `CCNc1nc2ccc(Nc3ccnc4cc(Cl)ccc34)cc2[nH]1` . 68.5

Look up and report measured growth for this entry: CC1=CCC(OC(=O)C(C)(O)CCC(O)(C(=O)OC2(C)C=CC(O)(C(C)C)CC2)C(C)C)(C(C)C)CC1 (stereo not given) 98.5

Return growth for the following molecule: `COc1ccc2c(c1)oc1c(C)c3c(c(C)c12)C(=O)N(N)C3=O` 28.5

Look up growth of `COc1ccccc1/C=C1\Oc2cc(OCCN3CCCC3)ccc2C1=O` and report it. 71.5

Quote growth reported for N#CC1=C(N)Oc2c(cnn2-c2ccc([N+](=O)[O-])cc2[N+](=O)[O-])C1c1ccccc1 (stereo not given) please. 110

Return reported growth. Input molecule: `CSc1nc2sc3cccc(Cl)c3n2c(=N)c1C#N` 131

Please give the documented growth of Cc1ccc(NC(C(=O)c2ccccc2)c2ccccc2)cc1 (stereo not given) 95.2

Item `NC(=NCCCOc1ccc(F)cc1)Nc1ccc(Cl)cc1` : provide growth 73.6

----------
# Test system: DU-145 prostate
# EXPERIMENT_SUMMARY: NCI-60 one-dose screen, 48 h (100 = growth as untreated, 0 = no growth, -100 = all killed)
# TEST_CONDITIONS: 10 µM unless noted
About 83,000 compounds went through this panel and 20% of them were active in at least one assay; those are over-represented in the sample as a whole.
ATTRIBUTE_MEASURED: growth (%)
Give the value, in units of %, as a plain number.

Recorded results for 5 compounds are shown here.
COc1ccc(-c2nc(S(=O)(=O)c3ccccc3)c(S(=O)CC(=O)N3CCC(C)CC3)o2)cc1 (stereo not given) | 42.5
O=C1Nc2ccc(F)cc2/C1=C\c1c(-c2ccccc2)nc2ccccn12 | 86.5
CCCNC(=O)Oc1ccc(/C(=C(\C)c2ccccc2)c2ccc(OCCCN(C)C)cc2)cc1 | 89.7
CN1[C@@H]2CC[C@H]1/C(=C\c1ccccc1)C(=O)/C2=C/c1ccccc1 | 14.1
CC(C)N1C(=O)S/C(=C2/SC(=O)N(C(C)C)C2=O)C1=O | 91.8

Entry `c1ccc2c(-c3c[nH]c4ccccc34)c3c(cc2c1)[nH]c1ccccc13` needs its growth filled in; supply it. 93.7

Quote growth reported for `COCc1cnccc1NC1CCCCCC1` please. 108

Give the measured growth for `COc1cc(-c2cc(-c3ccc(N(C)C)cc3)nc(N3CCOCC3)c2C#N)cc(OC)c1OC` 52.4

Give recorded growth. `Nc1n[nH]c2cccc(C#Cc3cccc(C(=O)Nc4cccc(C(F)(F)F)c4)c3)c12` 74.9

Give the reported value of growth for this record: CC(C)(C)CC(C)(C)n1nnnc1C(NC12CC3CC(CC(C3)C1)C2)c1ccccc1 (stereo not given) 96.5

----------
# System: MOLT-4 leukemia
# EXPERIMENT_SUMMARY: NCI-60 one-dose screen, 48 h (100 = growth as untreated, 0 = no growth, -100 = all killed)
# TEST_CONDITIONS: 10 µM unless noted
This is part of a sample that, as a whole, favours compounds with a hit. Of some 83,000 tested, about 20% had one in any assay.
Label rule, in plain words: growth of 70% and up is Criterion met, under 70% is Criterion not met.

COc1cc(/C=C/c2cc(O)c(C(C)=O)c(O)c2)cc2c1O[C@]1(C)CC[C@@H](O)C(C)(C)[C@H]1C2 | Criterion not met
O=C(NO)c1ccc(-n2nc(-c3ccccc3)c3ccccc32)cc1 | Criterion not met
O=C1c2c(c3c4cccc(F)c4[nH]c3c3ccc4ccccc4c23)C(=O)N1O | Criterion not met
Brc1ccc2[nH]cc(-c3cncn3CCc3ccccc3)c2c1 | Criterion not met
O=C(Nc1ccc(Cl)cc1)c1cc(NCc2cc(O)ccc2O)ccc1O | Criterion not met

Test whether the molecule `O=C(CCN1CCCC1)Nc1ccc2c(Nc3ccc(F)cc3)c3ccccc3nc2c1` records growth of 70% or higher. Criterion not met

Is reported growth greater than or equal to 70% here: `COc1ccc(/C=C2\Oc3cc(OCCCN4CCCCC4)ccc3C2=O)cc1OC` Criterion met

Is the recorded value of growth equal to or greater than 70% for this molecule? `CC(C)(C)c1cc(C=O)cc(C(C)(C)C)c1O` Criterion not met

Does the reported growth for `O=C(Nc1ccccc1C(=O)N/N=C(\c1ccccc1)c1ccccn1)c1ccc(F)cc1` fall at or above the 70% mark? Criterion not met

Hello, I need to know if Cc1ccc(NC(C(=O)c2ccccc2)c2ccccc2)cc1 (centres undefined) has measured growth not below 70%. Thanks! Criterion met

Does `COc1ccc(/C=C/c2nc(Nc3ccc(S(=O)(=O)NC(C)=O)cc3)c3ccccc3n2)cc1` have a reported growth of at least 70%? Criterion met

Determine whether measured growth meets or exceeds 70% for COc1ccc(C(=O)Nc2cccc(C3CCc4c(cc(OC)c(OC)c4OC)O3)c2)cc1 (centres undefined) Criterion not met

Textbook exercise: given the entry `Cn1c(-c2c(N)n(CCCN3CCOCC3)c3nc(C#N)c(C#N)nc23)nc2ccccc21` , state whether its growth is greater than or equal to 70%. Criterion not met

Would you say `CCC(CC)NCC(C)(C)O` shows growth at minimum 70%? Criterion met

Assess whether reported growth for Cn1cc(CC2CC(=O)N(c3ccccc3)C2=O)sc1=NC(=O)c1ccccc1 (centres undefined) sits at 70% or higher. Criterion met

----------
# Tested on: BT-549 breast
# EXPERIMENT_SUMMARY: NCI-60 one-dose screen, 48 h
# TEST_CONDITIONS: 10 µM unless noted
This is part of a sample that, as a whole, favours compounds with a hit. Of some 83,000 tested, about 20% had one in any assay. The source made the active and inactive calls. The calls were made as follows: active = growth percent below 10; inactive = the rest.
I would appreciate it if you answered using one of these outcomes: active, inactive

Some solved entries appear below for comparison.
NC1=NN=C(N)C1=Cc1cc2ccccc2n2nnnc12 | inactive
c1ccc2cc(Cn3c(-c4cccc5ccccc45)[n+](Cc4ccc5ccccc5c4)c4c5ccccc5c5ccccc5c43)ccc2c1 | active
CCCCC[n+]1ccc(SCC(=O)N(C)c2ccc(Oc3ccccc3)cc2)c2ccccc21 | inactive

Outcome? COC(=O)C(CC=O)C(=O)C(=O)Nc1cccc(C(F)(F)F)c1 (centres undefined) inactive

Status in this test for `Nc1nc(Nc2ccccc2SSc2ccccc2Nc2nc(N)nc(-c3cccs3)n2)nc(-c2ccsc2)n1` ? inactive

----------
# System: SF-268 CNS
# EXPERIMENT_SUMMARY: NCI-60 one-dose screen, 48 h (100 = growth as untreated, 0 = no growth, -100 = all killed)
# TEST_CONDITIONS: 10 µM unless noted
The panel holds about 83,000 compounds, 20% with a hit somewhere; the sample as a whole holds those more often.
ATTRIBUTE_MEASURED: growth (%)
Please give a number only; it is taken to be in %.

Examples with answers:
O=C(CCN1CCCC1)Nc1ccc2c(Nc3ccc(Br)cc3)c3ccccc3nc2c1 | -7.83
C/C(=N\NC(=O)CSc1nc2ccccc2c(=O)n1Cc1ccc(S(N)(=O)=O)cc1)c1ccc(F)cc1 | 98.8
COc1cc2c(c(OC)c1OC)-c1ccc(NNC(=S)N(Cc3cccc(C[N+](Cc4cccc(CNC56CC7CC(CC(C7)C5)C6)c4)(Cc4cccc(CNC56CC7CC(CC(C7)C5)C6)c4)Cc4cccc(CN(C(=S)NNc5ccc6c(cc5=O)[C@@H](NC(C)=O)CCc5cc(OC)c(OC)c(OC)c5-6)C56CC7CC(CC(C7)C5)C6)c4)c3)C34CC5CC(CC(C5)C3)C4)c(=O)cc1[C@@H](NC(C)=O)CC2 (stereo partly drawn) | 18.3
COc1cc(NC(C)CCCNC(=O)CCC(=O)NCCCNCCCCCCCCNCCCNC(=O)CCC(=O)NCCCC(C)Nc2cc(OC)cc3cccnc23)c2ncccc2c1 (stereo not drawn) | 52.2

Look up growth of `O=C(Cc1ccccc1)NNc1nc(Cl)nc(N2CCN(C(c3ccccc3)c3ccccc3)CC2)n1` and report it. 100

Tell me measured growth for `CNC(=O)c1cncc(Cn2nc(C)c(NC(=O)c3ccc(COc4ccc(C(F)(F)F)cc4C)cc3)c2C)c1` please. 70.8

Could you please provide reported growth for NC(=NCc1ccccc1)C(N=Nc1ccccc1)C(=O)NCc1ccccc1 (stereo not drawn) ? Thanks! 53.5

Name the recorded growth of the compound listed here: O=C(N/N=C/c1ccc(Oc2ccccc2)cc1)c1cnn2c1NC(c1ccccc1)C2 (stereo not drawn) 64.5
